Target: IgG (Gammanorm)
Test: SPR (Biacore), variant amine-coupled to CM5 chip, Gammanorm as analyte, steady state affinity fit
Reported Kd by item:
Give the number; nM is assumed, so skip it.

Consider the reported Kd for these binders:
{"columns": ["BINDER", "MEASUREMENT_UNIT", "Kd"],
 "data": [
  ["Protein L variant pAM244 (domain C2b-1; H10, H45, Q60) (protein) PKEEVTIKVHLIFADGKTQTAEFKGTFEEATAKAYAYADLLAKEHGEYTADLEDGGYTIQIKFAGKETPETPEE", "nM", 50],
  ["Protein L variant pAM247 (domain C4-1; H10, H45, Q60) (protein) PKEEVTIKVHLIFADGKTQTAEFKGTFEEATAEAYRYADLLAKVHGEYTADLEDGGYTIQIKFAGKEQPGENPG", "nM", 38]
]}

Please look at the following binder next.
(Q) Determine from records and report Kd for Protein L variant pAM237 (domain B2-1; H10, H45, Q60) (protein) PKEEVTIKAHLIYADGKTQTAEFKGTFEEAAAEAYRYADALKKDHGEYTVDVADKGYTLQIKFAGKEKTPEE
(A) 72
